Hey, just so you know, these numbers are from PubChem BioAssay AID256.

Measured T/C, listed per entry.
system: CD2F1 mice, L1210 leukemia ip, survival T/C; experiment: NCI In Vivo Anticancer Drug Screen. Data for tumor model L1210 Leukemia (intraperitoneal) in CD2F1 (CDF1) mice; settings: endpoint: mean survival time; dose: 100.0 mg/kg/injection; schedule: Q01DX009 (ip); vehicle: saline with Tween-80; higher = longer survival
Toxic doses and inconclusive results are not listed.

{"COMPOUND": "CN1CSC(=S)N(Cc2ccccc2)C1", "ASSAYED TARGET": "CD2F1 mice, L1210 leukemia ip, survival T/C", "T/C": "93 % of control"}
{"COMPOUND": "CC1(C)CCOC(CC(=O)OCc2ccccc2)=N1", "ASSAYED TARGET": "CD2F1 mice, L1210 leukemia ip, survival T/C", "T/C": "96 % of control"}
{"COMPOUND": "Clc1ccc2ccc(Cl)cc2c1", "ASSAYED TARGET": "CD2F1 mice, L1210 leukemia ip, survival T/C", "T/C": "94 % of control"}
{"COMPOUND": "CCCCCCCCCCCCCCCCSC(=S)OCC", "ASSAYED TARGET": "CD2F1 mice, L1210 leukemia ip, survival T/C", "T/C": "96 % of control"}
{"COMPOUND": "O=C(C(=Nc1ccccc1)c1ccccc1)c1ccccc1", "ASSAYED TARGET": "CD2F1 mice, L1210 leukemia ip, survival T/C", "T/C": "97 % of control"}
{"COMPOUND": "COc1ccc(OCCOC(=O)Nc2ccc(Cl)cc2C)cc1", "ASSAYED TARGET": "CD2F1 mice, L1210 leukemia ip, survival T/C", "T/C": "96 % of control"}
{"COMPOUND": "CCOc1ccc(NC(=S)N(C)C)cc1", "ASSAYED TARGET": "CD2F1 mice, L1210 leukemia ip, survival T/C", "T/C": "94 % of control"}
{"COMPOUND": "O=C(Nc1ccccc1)c1ccc(S(=O)(=O)F)cc1", "ASSAYED TARGET": "CD2F1 mice, L1210 leukemia ip, survival T/C", "T/C": "101 % of control"}
{"COMPOUND": "CCOC(=O)C1CC1C(=O)OC (stereo not drawn)", "ASSAYED TARGET": "CD2F1 mice, L1210 leukemia ip, survival T/C", "T/C": "88 % of control"}
{"COMPOUND": "COC(=O)c1cc2cc3c(c(O)c2c(=O)o1)OC1(Cc2c(O)c4c(c(O)c2O1)C(=O)C(OC)CC4=O)CC3O (stereo not drawn)", "ASSAYED TARGET": "CD2F1 mice, L1210 leukemia ip, survival T/C", "T/C": "101 % of control"}
{"COMPOUND": "COC(=O)C1C2CC(C(Br)C2Br)C1C(=O)O (stereo not drawn)", "ASSAYED TARGET": "CD2F1 mice, L1210 leukemia ip, survival T/C", "T/C": "96 % of control"}
{"COMPOUND": "CC(=O)/C(C)=C\\c1ccccc1", "ASSAYED TARGET": "CD2F1 mice, L1210 leukemia ip, survival T/C", "T/C": "96 % of control"}
{"COMPOUND": "NNC(=O)c1cc(NN)ccn1", "ASSAYED TARGET": "CD2F1 mice, L1210 leukemia ip, survival T/C", "T/C": "100 % of control"}

---

system: CD2F1 mice, L1210 leukemia ip, survival T/C; assay: NCI In Vivo Anticancer Drug Screen. Data for tumor model L1210 Leukemia (intraperitoneal) in CD2F1 (CDF1) mice; conditions: endpoint: mean survival time; dose: 200.0 mg/kg/injection; schedule: Q04DX002 (ip); vehicle: saline; higher = longer survival
Inconclusive results and toxic doses are left out.
Measured T/C, listed per entry.
PROPERTY NAME: T/C

{"MOLECULE": "C=C[Si](C)(C=C)C=C", "READOUT VALUE": "98 % of control"}
{"MOLECULE": "CN(C)C(=O)C1C2C=CC(CCC2)C1C(=O)N(C)C (centres undefined)", "READOUT VALUE": "88 % of control"}
{"MOLECULE": "O=C(O)C1(C(=O)O)CCC1", "READOUT VALUE": "111 % of control"}
{"MOLECULE": "CCOC(=O)c1c(C)[nH]c(C)cc1=O", "READOUT VALUE": "108 % of control"}

---

tested on: CD2F1 mice, L1210 leukemia ip, survival T/C; assay: NCI In Vivo Anticancer Drug Screen. Data for tumor model L1210 Leukemia (intraperitoneal) in CD2F1 (CDF1) mice; conditions: endpoint: median survival time; dose: 12.5 mg/kg/injection; schedule: Q01DX009 (ip); vehicle: saline with Tween-80; higher = longer survival
Inconclusive results and toxic doses are left out.
Measured T/C, listed per entry.

{"SMILES STRUCTURE": "CC(C)c1cc(C(=O)O)c(O)c(C(C)C)c1.CC(C)c1cc(C(=O)O)c(O)c(C(C)C)c1.[Cu]", "T/C": "96 % of control"}
{"SMILES STRUCTURE": "COc1ccc(S(=O)(=O)N=N/C=C2\\C=CC=CN2O)cc1OC", "T/C": "104 % of control"}
{"SMILES STRUCTURE": "Nc1nnc[se]1", "T/C": "109 % of control"}
{"SMILES STRUCTURE": "O=C(Nc1ccc(O)cc1)c1c(O)[nH]c(=S)[nH]c1=O", "T/C": "107 % of control"}

---

Measured T/C, listed per entry.
System: CD2F1 mice, L1210 leukemia ip, survival T/C
Experiment: NCI In Vivo Anticancer Drug Screen. Data for tumor model L1210 Leukemia (intraperitoneal) in CD2F1 (CDF1) mice
Conditions: endpoint: mean survival time; dose: 400.0 mg/kg/injection; schedule: Q04DX003 (ip); vehicle: saline with Tween-80; higher = longer survival
Protocol: The antitumor activity of compounds was measured in mice bearing transplantable tumors. Survival or tumor size were measured and the results are expressed as the measurement made in the treated group (T) divided by the measurement made in the vehicle treated control group (C). The tumor model used in this assay is L1210 Leukemia (intraperitoneal) in CD2F1 (CDF1) mice
Toxic doses and inconclusive results are not listed.

{"COMPOUND": "CC(=O)C(=O)C(C)=O", "T/C": "105 % of control"}
{"COMPOUND": "O=C(O)/C(=C(/c1ccccc1)c1ccc(Cl)cc1)c1ccccc1", "T/C": "98 % of control"}
{"COMPOUND": "O=C(c1ccccc1)C(O)c1ccccc1 (configuration not stated)", "T/C": "97 % of control"}
{"COMPOUND": "COC(=O)c1ccc(C2CCC(OC(c3ccccc3)c3ccccc3)CC2)cc1 (configuration not stated)", "T/C": "91 % of control"}
{"COMPOUND": "NC(=O)N/N=C/c1cccs1", "T/C": "91 % of control"}
{"COMPOUND": "CC(=O)/C(C)=C\\c1ccccc1", "T/C": "94 % of control"}
{"COMPOUND": "CN(C)S(=O)(=O)c1ccccc1C(O)(c1ccccc1)c1ccccc1 (tested in a mixture with another compound)", "T/C": "98 % of control"}
{"COMPOUND": "NC(=O)Cn1cnnn1", "T/C": "95 % of control"}
{"COMPOUND": "O=C(Nc1ccc(Cl)cc1)c1cc(Br)ccc1O", "T/C": "92 % of control"}
{"COMPOUND": "COc1ccc([N+](=O)[O-])cc1CO/N=C(/CCC(=O)O)C(=O)O", "T/C": "101 % of control"}
{"COMPOUND": "CC(=O)Oc1ccc(Cl)cc1", "T/C": "89 % of control"}
{"COMPOUND": "CCc1c(Br)c(CC)c(Br)c(CC)c1Br", "T/C": "98 % of control"}

---

Measured T/C, listed per entry.
Test system: CD2F1 mice, L1210 leukemia ip, survival T/C
Experiment: NCI In Vivo Anticancer Drug Screen. Data for tumor model L1210 Leukemia (intraperitoneal) in CD2F1 (CDF1) mice
Details: endpoint: mean survival time; dose: 12.5 mg/kg/injection; schedule: Q01DX005 (ip); vehicle: other; higher = longer survival
Protocol: The antitumor activity of compounds was measured in mice bearing transplantable tumors. Survival or tumor size were measured and the results are expressed as the measurement made in the treated group (T) divided by the measurement made in the vehicle treated control group (C). The tumor model used in this assay is L1210 Leukemia (intraperitoneal) in CD2F1 (CDF1) mice
Toxic doses and inconclusive results are not listed.

{"COMPOUND": "C#CCNc1ncnc2c1ncn2C1OC(CO)C(O)C1O (centres undefined)", "T/C": "96 % of control"}
{"COMPOUND": "Cn1c(=O)[nH]c2c(nc(-c3ccc(Cl)cc3)n2C)c1=O", "T/C": "91 % of control"}
{"COMPOUND": "CCCCCCC[CH2][Sn][CH2]CCCCCCC.Nc1ncnc2c1ncn2C1OC(CO)C2[OH+][OH+]C21 (centres undefined)", "T/C": "98 % of control"}
{"COMPOUND": "COC(=O)c1cc([N+](=O)[O-])c(Sc2ncnc3nc[nH]c23)c([N+](=O)[O-])c1", "T/C": "110 % of control"}
